Test: gMDCK (P-gp knockout MDCK) monolayer permeability assay
Settings: dog, MDCK, pH 7.4, Lenalidomide Permeability in gMDCK Cells, typical assay conditions, 10 uM

{"compound": "Nc1cccc2c1CN(C1CCC(=O)NC1=O)C2=O (stereo not shown) [Lenalidomide]", "Papp at 3 h, 10 µM / ×10⁻⁶ cm/s": 0.19}

---

Assay: Lenalidomide pharmacokinetic study in rats (IV and oral)
Format: in vivo, Sprague Dawley rats
Details: male, Sprague Dawley, rat, plasma; rats, across oral doses

{"compound": "Nc1cccc2c1CN(C1CCC(=O)NC1=O)C2=O (stereo not shown) [Lenalidomide]", "Tmax": "~30 min"}

---

Assay: gMDCK (P-gp knockout MDCK) monolayer permeability assay
Conditions: dog, MDCK, Lenalidomide Permeability in gMDCK Cells, FaSSIF, 500 uM
measured quantity: Papp at 3 h, 500 µM (×10⁻⁶ cm/s)

{"compound": "Nc1cccc2c1CN(C1CCC(=O)NC1=O)C2=O (stereo not shown) [Lenalidomide]", "val": 0.13}

---

Assay: Lenalidomide pharmacokinetic study in rats (IV and oral)
Format: in vivo, Sprague Dawley rats
Conditions: Sprague Dawley, rat, plasma; male rats, 10 mg/kg PO

{"compound": "Nc1cccc2c1CN(C1CCC(=O)NC1=O)C2=O (stereo not shown) [Lenalidomide]", "readout unit": "µM·h", "AUC": 15.4}

---

Assay: in vitro
Conditions: human, pH 7.4

{"compound": "CC(C)(C)NCC(O)COc1cccc2c1CC(O)C(O)C2 (stereo not shown)", "efflux ratio at 3 h": "> 4"}

---

Experiment: Lenalidomide pharmacokinetic study in rats (IV and oral)
Type: in vivo, Sprague Dawley rats
Details: Sprague Dawley, rat, plasma; male rats, 2 mg/kg PO

{"compound": "Nc1cccc2c1CN(C1CCC(=O)NC1=O)C2=O (stereo not shown) [Lenalidomide]", "AUC (µM·h)": 5.44}

---

Assay: Lenalidomide pharmacokinetic study in rats (IV and oral)
Format: in vivo, Sprague Dawley rats
Conditions: Sprague Dawley, rat, plasma; male rats, 50 mg/kg PO
Method: All animal pharmacokinetic experiments were carried out by WuXi (Shanghai, China). Animals were kept on a light-dark cycle and allowed to eat and drink ad libitum. Animals receiving oral doses were fasted overnight. Animals’ condition and behavior were monitored throughout the experiment for signs of pain and distress. […] The human equivalent dose (HED) was calculated based on the previously reported AUC after a typical dose in humans. […]
measured quantity: half-life (h)

{"molecule": "Nc1cccc2c1CN(C1CCC(=O)NC1=O)C2=O (stereo not shown) [Lenalidomide]", "readout unit": "h", "val": 2.7}

---

Assay: Lenalidomide pharmacokinetic study in rats (IV and oral)
Assay type: in vivo, Sprague Dawley rats
Settings: Sprague Dawley, rat, plasma; male rats, 10 mg/kg PO

{"compound": "Nc1cccc2c1CN(C1CCC(=O)NC1=O)C2=O (stereo not shown) [Lenalidomide]", "half-life, h": 1.4}

---

Experiment: gMDCK (P-gp knockout MDCK) monolayer permeability assay
Settings: dog, MDCK, pH 7.4
measured quantity: Papp A→B at 3 h (×10⁻⁶ cm/s)

{"compound": "Nc1cccc2c1CN(C1CCC(=O)NC1=O)C2=O (stereo not shown) [Lenalidomide]", "val": 0.21}

---

Assay: gMDCK (P-gp knockout MDCK) monolayer permeability assay
Settings: dog, MDCK, pH 7.4, Lenalidomide Permeability in gMDCK Cells, shaking (1000 rpm), 10 uM

{"molecule": "Nc1cccc2c1CN(C1CCC(=O)NC1=O)C2=O (stereo not shown) [Lenalidomide]", "readout unit": "×10⁻⁶ cm/s", "Papp at 3 h, 10 µM": 0.03}
